target: T1, Anti-CD28 Fab (SEQ ID NOs: 202, 203); experiment: phage binding ELISA, Fab on plate, CD28 as competitor;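 further: coated wells pre-incubated with CD28 antigen or with blocking buffer only, then crude clonal phage supernatant added briefly, and retained phage read out via HRP-linked anti-M13 antibody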
T1 construct: biotinylated and captured on neutravidin coated plates in the phage ELISA
T1 sequence (VH, as listed by the source, chain 1 of 2): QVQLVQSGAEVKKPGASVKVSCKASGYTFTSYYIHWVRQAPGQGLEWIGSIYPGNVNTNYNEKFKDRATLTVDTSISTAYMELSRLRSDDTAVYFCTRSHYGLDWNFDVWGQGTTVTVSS
T1 sequence (VL, as listed by the source, chain 2 of 2): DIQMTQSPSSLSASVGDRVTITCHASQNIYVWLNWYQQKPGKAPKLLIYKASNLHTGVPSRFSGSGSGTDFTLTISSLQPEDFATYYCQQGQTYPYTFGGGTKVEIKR
Lab note: anything with Anti-CD28 Fab signal in the presence of CD28 at or over 0.07 counts as Fulfilled; the rest go in Not fulfilled.

INSERT INTO assay_data (binder, answer_label) VALUES
  ('TCAAGASYPWPACL [Phage-998]', 'Fulfilled'),
  ('TCAAGAGWAWPFCF [Phage-1056]', 'Fulfilled'),
  ('TCSAGATYIWPMCF [Phage-995]', 'Fulfilled'),
  ('TCSAGATWPWPICL [Phage-997]', 'Fulfilled'),
  ('SCAAVFSFPWSPCL [Phage-999]', 'Fulfilled'),
  ('TCSAGAHYEWPYCL [Phage-1007]', 'Fulfilled'),
  ('TCSAGAYYAWPVCL [Phage-1004]', 'Fulfilled'),
  ('LCSAGAMYPWPLCY [Phage-1051]', 'Fulfilled'),
  ('TCSAGAMWTWPYCF [Phage-989]', 'Fulfilled'),
  ('TCSAGAHYVWPMCF [Phage-994]', 'Fulfilled'),
  ('WCAAGAMYPWPLCL [Phage-1049]', 'Not fulfilled'),
  ('LCRAGAMWPWPTCL [Phage-1005]', 'Not fulfilled'),
  ('TCSAGATFHWPQCF [Phage-1006]', 'Fulfilled'),
  ('TCSAGATWAWPSCF [Phage-993]', 'Fulfilled'),
  ('TCSAGAGYPWPLCY [Phage-991]', 'Fulfilled'),
  ('SCAAGAAYPWPACL [Phage-1013]', 'Not fulfilled'),
  ('TCSAGATYAWPACY [Phage-1002]', 'Fulfilled'),
  ('LCNAGAMYKWPTCL [Phage-987]', 'Not fulfilled'),
  ('TCTAGFSYNWPMCF [Phage-1001]', 'Not fulfilled'),
  ('SCSAGASLQLSICL [Phage-992]', 'Not fulfilled'),
  ('LCKPGVPYQWPTCF [Phage-1009]', 'Not fulfilled'),
  ('SCAAGAHYVWPFCF [Phage-1046]', 'Fulfilled');
